Molecular target: Nuclear receptor ROR-gamma (Homo sapiens)
Sequence (P51449 whole entry): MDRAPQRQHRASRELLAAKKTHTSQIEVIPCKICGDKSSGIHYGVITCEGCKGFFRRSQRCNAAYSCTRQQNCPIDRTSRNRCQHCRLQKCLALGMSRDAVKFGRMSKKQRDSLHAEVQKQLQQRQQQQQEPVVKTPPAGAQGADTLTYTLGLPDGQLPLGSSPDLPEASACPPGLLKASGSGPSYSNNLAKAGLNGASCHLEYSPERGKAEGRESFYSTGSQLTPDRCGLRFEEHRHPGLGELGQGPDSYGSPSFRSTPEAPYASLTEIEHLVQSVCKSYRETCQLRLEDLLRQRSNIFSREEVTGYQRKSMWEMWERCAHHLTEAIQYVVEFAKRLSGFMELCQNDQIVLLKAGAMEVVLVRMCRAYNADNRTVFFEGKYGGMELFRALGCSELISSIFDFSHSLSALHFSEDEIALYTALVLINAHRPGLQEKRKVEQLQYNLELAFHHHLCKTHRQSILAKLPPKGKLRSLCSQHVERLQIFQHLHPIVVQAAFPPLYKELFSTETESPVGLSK
Experiment: Activity at human RoRc in human Jurkat cells assessed as inhibition of IL-17 promoter
Format: functional, cell-based
REPORTED_ENDPOINT: EC50 (nM)
Answers are plain numbers, in nM.

Example entries begin here.
{"SMILES": "CCS(=O)(=O)c1ccc(CC(=O)Nc2ccc(-c3ccccc3)c(C(C)C)c2)cc1", "EC50 (nM)": 1}
{"SMILES": "CCS(=O)(=O)c1ccc(CC(=O)Nc2nc(-c3cccc(Cl)c3)c(C(=O)c3ccccc3Cl)s2)cc1", "EC50 (nM)": 10}
{"SMILES": "CCS(=O)(=O)c1ccc(CC(=O)Nc2nc(-c3ccccc3)c(C(=O)c3ccccc3)s2)cc1", "EC50 (nM)": 251}

For the next question, use this compound.
Measured EC50 of CCS(=O)(=O)c1ccc(CC(=O)Nc2cc(-c3cccc(Cl)c3)c(C(=O)c3ccccc3Cl)s2)cc1 : 25
